Recorded % inhibition values for a group of compounds are listed next.
test system: HSC2 (primary human Schwann cells); test: % inhibition of CellTiter-Glo viability at highest tested concentration (72 h), relative to DMSO and benzethonium chloride controls; higher = more inhibition
TEST_READOUT: % inhibition (%)

compound="CC1=C(/C=C/C(C)=C/C=C/C(C)=C/C(=O)O)C(C)(C)CCC1 [Tretinoin] (max concentration tested 10000 nM)" reading=20.1
compound="CC(C)C[C@H](NC(=O)[C@H](Cc1ccccc1)NC(=O)c1cnccn1)B(O)O [Bortezomib] (max concentration tested 1000 nM)" reading=102
compound="COc1ccc(C2=N[C@@H](c3ccc(Cl)cc3)[C@@H](c3ccc(Cl)cc3)N2C(=O)N2CCNC(=O)C2)c(OC(C)C)c1 [Nutlin-3] (max concentration tested 10000 nM)" reading=71.8

###

test system: YST-1; assay: relative IC50 (inflection point of fitted dose-response curve, CellTiter-Glo viability, 72 h; top asymptote may be below 50% inhibition); higher = less potent
Recorded relative IC50 values for a group of compounds are listed next.
TEST_READOUT: relative IC50 (nM)

compound="Nc1nc(NC2CC2)cc(-c2cccc(Cl)c2Cl)n1 [TH588]" rel== reading=3620
compound="Cc1ccc(F)c(NC(=O)Nc2ccc(-c3cccc4[nH]nc(N)c34)cc2)c1 [Linifanib]" rel=> reading=1000
compound="CN(C)C/C=C/C(=O)Nc1cc2c(Nc3ccc(F)c(Cl)c3)ncnc2cc1O[C@H]1CCOC1 [Afatinib]" rel=> reading=1000
compound="NC(=O)c1cccc2cn(-c3ccc(C4CCCNC4)cc3)nc12 (stereo not drawn) [Niraparib]" rel== reading=461
compound="O=C(NC1CCNCC1)c1n[nH]cc1NC(=O)c1c(Cl)cccc1Cl [AT7519]" rel== reading=69.3
compound="CC[C@@H]1C(=O)N(C)c2cnc(Nc3ccc(C(=O)N[C@H]4CC[C@H](N5CCN(CC6CC6)CC5)CC4)cc3OC)nc2N1C(C)C [Volasertib]" rel== reading=17.7
compound="CC(C)C[C@H](NC(=O)[C@H](Cc1ccccc1)NC(=O)c1cnccn1)B(O)O [Bortezomib]" rel== reading=10.1
compound="CN(CC(=O)N(Cc1ccc(C2CCCCC2)cc1)c1ccc(C(=O)O)cc1)S(=O)(=O)c1c(F)c(F)c(F)c(F)c1F [SH-4-54]" rel== reading=3260

###

Recorded % inhibition values for a group of molecules are listed next.
test system: S462; test: % inhibition of CellTiter-Glo viability at highest tested concentration (72 h), relative to DMSO and benzethonium chloride controls; higher = more inhibition
TEST_READOUT: % inhibition

molecule="O=c1[nH]c(=O)n([C@H]2C[C@H](O)[C@@H](CO)O2)cc1F [Floxuridine] (max concentration tested 10000 nM)" tested_system=S462 reading=84.1%
molecule="O=P1(NCCCl)OCCCN1CCCl (configuration not stated) [Ifosfamide] (max concentration tested 10000 nM)" tested_system=S462 reading=2.94%
molecule="CC(O)(CS(=O)(=O)c1ccc(F)cc1)C(=O)Nc1ccc(C#N)c(C(F)(F)F)c1 (configuration not stated) [Bicalutamide] (max concentration tested 10000 nM)" tested_system=S462 reading=7.3%
molecule="COc1cc(O)c2c(c1)/C=C/C[C@H](O)[C@H](O)C(=O)/C=C\\C[C@H](C)OC2=O [(5Z)-7-Oxozeaenol] (max concentration tested 10000 nM)" tested_system=S462 reading=74.1%
molecule="Cc1cn(-c2cc(NC(=O)c3ccc(C)c(Nc4nccc(-c5cccnc5)n4)c3)cc(C(F)(F)F)c2)cn1 [Nilotinib] (max concentration tested 10000 nM)" tested_system=S462 reading=-3.63%
molecule="OC[C@H]1O[C@@H](n2cnc3c2N=CNC[C@H]3O)C[C@@H]1O [Pentostatin] (max concentration tested 10000 nM)" tested_system=S462 reading=-16.1%
molecule="CC1(C)CCC(c2ccc(Cl)cc2)=C(CN2CCN(c3ccc(C(=O)NS(=O)(=O)c4ccc(N[C@H](CCN5CCOCC5)CSc5ccccc5)c(S(=O)(=O)C(F)(F)F)c4)cc3)CC2)C1 [Navitoclax] (max concentration tested 10000 nM)" tested_system=S462 reading=20.7%
molecule="CCn1c(-c2nonc2N)nc2cnc(Oc3cccc(NC(=O)c4ccc(OCCN5CCOCC5)cc4)c3)cc21 (max concentration tested 10000 nM)" tested_system=S462 reading=43.6%
molecule="CC(C)(C)c1cc(NC(=O)Nc2ccc(-c3cn4c(n3)sc3cc(OCCN5CCOCC5)ccc34)cc2)no1 [Quizartinib] (max concentration tested 1000 nM)" tested_system=S462 reading=64.2%
molecule="CNC(=O)c1ccccc1Sc1ccc2c(/C=C/c3ccccn3)n[nH]c2c1 [Axitinib] (max concentration tested 10000 nM)" tested_system=S462 reading=52.1%
molecule="Cn1c(=O)c(F)c(Nc2ccc(I)cc2F)c2c(=O)n(C[C@@H](O)CO)cnc21 [TAK-733] (max concentration tested 1000 nM)" tested_system=S462 reading=76.5%
molecule="CNC(=O)c1cc(Oc2ccc(NC(=O)Nc3ccc(Cl)c(C(F)(F)F)c3)c(F)c2)ccn1 [Regorafenib] (max concentration tested 10000 nM)" tested_system=S462 reading=80.9%

###

system: HS-PSS; assay: % inhibition of CellTiter-Glo viability at highest tested concentration (72 h), relative to DMSO and benzethonium chloride controls; higher = more inhibition
So basically, the class depends on measured % inhibition, and the ranges are low = under 10%, middle = from 10% up to 50%, high = 50% and over

compound="CS(=O)(=O)OCCCCOS(C)(=O)=O [Busulfan] (max concentration tested 100000 nM)" cat=low
compound="Cn1cc(C2=Nc3cc(NC(=O)C(N)C4CCCCC4)cc4c3C2=CNNC4=O)cn1 (configuration not stated) (max concentration tested 10000 nM)" cat=middle
compound="C[C@]12C=CC(=O)C=C1CC[C@@H]1[C@@H]2[C@@H](O)C[C@@]2(C)[C@H]1CC[C@]2(O)C(=O)CO [Prednisolone] (max concentration tested 10000 nM)" cat=low
compound="O=C(Nc1ccc(-c2ccnc(Nc3ccc(N4CCOCC4)cc3)n2)cc1)[C@H]1CCCN1 [XL019] (max concentration tested 10000 nM)" cat=middle
compound="CC(C)(C)C[C@@H]1N[C@@H](C(=O)N[C@H]2CC[C@H](O)CC2)[C@H](c2cccc(Cl)c2F)[C@]12C(=O)Nc1cc(Cl)ccc12 (max concentration tested 10000 nM)" cat=middle
compound="C=CC[C@@H]1/C=C(\\C)C[C@H](C)C[C@H](OC)[C@H]2O[C@@](O)(C(=O)C(=O)N3CCCC[C@H]3C(=O)O[C@H](/C(C)=C/[C@@H]3CC[C@@H](O)[C@H](OC)C3)[C@H](C)[C@@H](O)CC1=O)[C@H](C)C[C@@H]2OC [Tacrolimus] (max concentration tested 10000 nM)" cat=low
compound="CCN(CC)CCCC(C)Nc1ccnc2cc(Cl)ccc12 (configuration not stated) [Chloroquine] (max concentration tested 100000 nM)" cat=high
compound="CC1CCC(n2c3cnccc3c3cnc(Nc4ccc5c(n4)CCN(C(=O)CO)C5)nc32)CC1 (configuration not stated) [AMG-925] (max concentration tested 1000 nM)" cat=low
compound="COc1cccc2c1C(=O)c1c(O)c3c(c(O)c1C2=O)C[C@@](O)(/C(CO)=N/NC(=O)CCCCCN1C(=O)C=CC1=O)C[C@@H]3O[C@H]1C[C@H](N)[C@H](O)[C@H](C)O1 [Aldoxorubicin] (max concentration tested 1000 nM)" cat=high
compound="CC(C)(O)CC(=O)NCCn1ccc2ncnc(Nc3ccc(Oc4cccc(C(F)(F)F)c4)c(Cl)c3)c21 [TAK-285] (max concentration tested 2500 nM)" cat=low
compound="Cc1nc(NC(=O)N2CCC[C@H]2C(N)=O)sc1-c1ccnc(C(C)(C)C(F)(F)F)c1 [Alpelisib] (max concentration tested 2500 nM)" cat=middle
compound="CN(C)C[C@@H]1CCn2cc(c3ccccc32)C2=C(C(=O)NC2=O)c2cn(c3ccccc23)CCO1 [Ruboxistaurin] (max concentration tested 10000 nM)" cat=high
compound="C/C=C1\\NC(=O)[C@H]2CSSCC/C=C/[C@H](CC(=O)N[C@H](C(C)C)C(=O)N2)OC(=O)[C@H](C(C)C)NC1=O [Romidepsin] (max concentration tested 1000 nM)" cat=high
compound="O=S(=O)(c1cccc2c(O)nccc12)N1CCCNCC1 [Hydroxyfasudil] (max concentration tested 37500 nM)" cat=middle
compound="C=CC(=O)N1CCC(Oc2cc3c(Nc4ccc(Cl)c(Cl)c4F)ncnc3cc2OC)CC1 [Poziotinib] (max concentration tested 1000 nM)" cat=low
compound="Cc1nc(Nc2n[nH]c3c2CN(C(=O)N[C@H](CN(C)C)c2ccccc2)C3(C)C)c2sccc2n1 (max concentration tested 10000 nM)" cat=high
compound="COC1=CC(c2cc3ccccc3[nH]2)=N/C1=C\\c1[nH]c(C)cc1C [Obatoclax] (max concentration tested 10000 nM)" cat=middle
compound="CNC(=O)c1c(F)cccc1Nc1nc(Nc2cc3c(cc2OC)CCN3C(=O)CN(C)C)nc2[nH]ccc12 (max concentration tested 2500 nM)" cat=high
compound="O=C(Nc1cccnc1)N1CCC(Cc2cccc(Oc3ccc(C(F)(F)F)cn3)c2)CC1 [PF-3845] (max concentration tested 10000 nM)" cat=high
compound="CC[C@H](C)C(=O)O[C@H]1C[C@@H](C)C=C2C=C[C@H](C)[C@H](CC[C@@H]3C[C@@H](O)CC(=O)O3)[C@H]21 [Lovastatin] (max concentration tested 10000 nM)" cat=low
compound="Nc1nc(Cl)nc2c1ncn2[C@H]1C[C@H](O)[C@@H](CO)O1 [Cladribine] (max concentration tested 1000 nM)" cat=middle
